Experiment: Toxicity against brine shrimp larvae
Type: organism-based
Settings: artemia, in vivo
Entries and their LC50 values follow.
assayMetric: LC50

>>> reportedvalue("CC(=O)O[C@@H]1C[C@H](OC(=O)c2ccccc2)[C@@]2(C)[C@H]3[C@H](OC[C@]13C)[C@@H](O)[C@@]1(C)C3=CC[C@@H](c4ccoc4)[C@]3(C)CC[C@@H]12 [MELIAVOLKININ]")
"5.37 µg/mL"
>>> reportedvalue("CC(=O)O[C@H]1C[C@@H](OC(=O)c2ccccc2)C(C)(C)[C@@H]2C[C@@H](OC(C)=O)[C@@]3(C)C4=CC[C@@H](C5COC(C)(C)[C@@H](O)[C@H](O)C5)[C@]4(C)CC[C@@H]3[C@@]12C (stereo partly drawn) [MELIANIN B]")
"> 100 µg/mL"
>>> reportedvalue("CC(=O)O[C@H]1C[C@@H](OC(C)=O)[C@@]2(C)CO[C@@H]3[C@@H](O)[C@@]4(C)C5=CC[C@@H](c6ccoc6)[C@]5(C)CC[C@@H]4[C@]1(C)[C@@H]32")
"10 µg/mL"

These entries and their values trace back to ChEMBL document CHEMBL1158849.
